The values you see were collected from patent US20070014810A1.

# assayed system: HLA-A*3002 (human)
# assay explanation: inhibition of 125I-labelled probe peptide binding to purified HLA, gel filtration; standard peptide (allele listed again under supertype A24)
measurement kind: IC50

# binder, result
data = [
    ("RISGVDRYY (modifications not checked) [standard peptide …]", "3 nM"),
]
